The entries below are paired with their reported peptide exchange yield.
- targetOfAssay: T1, HLA-A*03:01 (human)
- T1 construct: MHC class I monomer first loaded with a UV-sensitive peptide that is cleaved by UV irradiation and exchanged for the test peptide; captured on streptavidin plates; also called peptide-receptive MHC molecules
- testDetails: UV-ligand exchange, anti-b2m ELISA; peptide exchange yield grade (>10% +, >20% ++, >50% +++, >75% ++++)
observedProperty: peptide exchange yield

binder: SLLEADPFLK
experimentalValue: 50 to 75%

binder: ALCGTQLFY
experimentalValue: > 75%

binder: SLYNLGGAK
experimentalValue: > 75%

binder: IMPTFDLTK
experimentalValue: 10 to 20%

binder: QVRDTLKIVFK
experimentalValue: 50 to 75%

binder: QLYSPPSPSYR
experimentalValue: > 75%

binder: ALLGVIIAKK
experimentalValue: > 75%

binder: AVVQGLVEK
experimentalValue: 20 to 50%

binder: RLYAPVVNISRL
experimentalValue: 50 to 75%

binder: RSNPYFQNK
experimentalValue: > 75%

binder: KVLSILSRLK
experimentalValue: 50 to 75%

binder: SLYDGFLSY
experimentalValue: > 75%

binder: VTADGALAMEK
experimentalValue: 50 to 75%

binder: RVDSKQRYY
experimentalValue: > 75%

binder: KVLTRNIEY
experimentalValue: 50 to 75%

binder: AVCGGVLVH
experimentalValue: > 75%

binder: RVWLGKHYK
experimentalValue: > 75%

binder: GLAAGALLLY
experimentalValue: 20 to 50%

binder: VLYELGIIGNNK
experimentalValue: 50 to 75%

binder: SVLSRMLVR
experimentalValue: > 75%

Recorded values, source patent US20200000897A1.
